- Test system: CU-ACC2
- measurement notes: area under concentration-response curve (viability) (AUC (a.u.)); higher = less active
- experimental conditions: 48 h
Binary call on area under concentration-response curve: true (1) from 400 upward, false (0) beneath that.

# count of solved cases: 7
COCCN1CCN(Cc2ccc(-c3n[nH]c4c3C(=O)c3c(NC(=O)NN5CCOCC5)cccc3-4)cc2)CC1	false (0)
N#Cc1ccc(NC(=O)Nc2ccccc2Br)c2nn[nH]c12	true (1)
C[C@H](NC(=O)c1sccc1OCc1ccc(Cl)cc1)c1ccccc1	true (1)
OC[C@H]1OCC(O1)[N@@]2C=CC(N)=NC2=O (stereo partly drawn)	true (1)
CC(=O)Nc1ccc(O)cc1	true (1)
COc1cc2c(NC3CCN(C(C)C)CC3)nc(C3CCCCC3)nc2cc1OCCCN1CCCC1	false (0)
CCC(C1CCC(C)C(O1)C(C)C(O)C(C)C(=O)C(CC)C2OC\3(O[C@]4(CC[C@@](C)(O4)C5CC[C@@](O)(CC)C(C)O5)C(O)\C=C3)C(C)CC2C)C([O-])=O (stereo partly drawn)	true (1)

Form field: area under concentration-response curve at least 400? Entry: CCC(=C/[C@H](C)C/C=C/C(C)=C/[C@@H](C)C(=O)[C@@H](C)[C@H](O)[C@@H](C)C/C(C)=C/C(=O)O)/C=C/[C@@H]1OC(=O)C=C[C@@H]1C false (0)

###

- Tested on: NCI-H295R
- measurement notes: area under concentration-response curve (viability) (AUC (a.u.)); higher = less active
- experimental conditions: 48 h
observation type: area under concentration-response curve
Give bare numbers.

Example entries and their recorded answers appear below.
COC1=CC=C2[N](CCCN(C)C)C=C(C2=C1)C/3=C(/C(=O)NC3=O)C4=C[NH]C5=C4C=CC=C5	547
CC(C)n1ncnc1-c1cn2c(n1)-c1ccc(O[C@@H](C)C(N)=O)cc1OCC2	491
CCCCCCCCCCCCc1ccc([S+](=O)([O-])Nc2nncs2)cc1	527

Here is the next item to consider.
Bench note: what area under concentration-response curve did CC(C)c1onc(-c2c(Cl)cccc2Cl)c1COc1ccc(/C=C/c2cccc(C(=O)O)c2)c(Cl)c1 show? 480

###

- System: CU-ACC2
- measurement notes: area under concentration-response curve (viability) (AUC (a.u.)); higher = less active
- experimental conditions: 48 h
observation type: area under concentration-response curve

The following compounds have reported results that may help.
CC(C)(C)[S+](=O)([O-])c1ccc2nccc(Nc3n[nH]c4ccc(F)cc34)c2c1	627
NC\1=N\C(=O)N(\C=C1)[C@@H]2O[C@H](CO)[C@@H](O)[C@@H]2O	551
C[C@@H]1[C@H](O)[C@@H](C)/C=C/C=C/C=C/C=C/C=C/C=C/C=C/[C@H](O[C@@H]2O[C@H](C)[C@@H](O)[C@H](N)[C@@H]2O)C[C@@H]2O[C@](O)(C[C@@H](O)C[C@@H](O)[C@H](O)CC[C@@H](O)C[C@@H](O)CC(=O)O[C@H]1C)C[C@H](O)[C@H]2C(=O)O	633
C[C@@H]1C(=O)OC2[C@H](O)[C@]34[C@H]5C[C@@H](C(C)(C)C)[C@]36[C@@H](OC(=O)[C@@H]6O)O[C@@]4(C(=O)O5)[C@]21O (some centres undefined)	556
C=Cc1cc(O)cc2nc(-c3ccc(O)c(F)c3)oc12	587

Dear colleague, could you please provide area under concentration-response curve for the compounds listed below?
1. CC(C)(O)C(=O)Nc1ccc([N+](=O)[O-])c(C(F)(F)F)c1
2. N[C@@H]1CN(CC12CC2)C3=C(F)C=C4C(=O)\C(=C/N([C@@H]5C[C@@H]5F)C4=C3Cl)C(O)=O
3. COCCCN1CCC(NC(=O)c2cc(Cl)c(N)c3c2OCC3)CC1

1: 602; 2: 426; 3: 549

// returns reported area under concentration-response curve for input CCOC(=O)c1c(C)n(C)c2ccc(O)cc12 593

These data points were gathered from the supplement of paper PMC10949913.
